Tested on: HCT-15 colon
Experiment: NCI tumour cell line growth inhibition, 48 h
outcomeMeasure: TGI

Give TGI (HCT-15 colon) of the following molecule: COc1ccc(N2C(=O)C3c4[nH]c5ccccc5c4C4CCCCCCC4C3C2=O)cc1 (stereo not given)
27 µM

Give TGI (HCT-15 colon) of the following molecule: COc1c(Sc2ccccc2)cc(Sc2ccccc2)c2cccnc12
49.3 µM

Give TGI (HCT-15 colon) of the following molecule: CC1=NOC(=O)C1N=Nc1ccc(Br)c(C)c1 (stereo not given)
41.6 µM

Give TGI (HCT-15 colon) of the following molecule: C[C@]12CC[C@H]3[C@@H](CC[C@]4(O)C[C@@H](O)CC[C@]34CO)[C@@]1(O)CC[C@@H]2C1=CC(=O)OC1
4.72 µM

Give TGI (HCT-15 colon) of the following molecule: Cn1ccc2c(c1=O)C(=O)OC2(C)C
> 100 µM

Give TGI (HCT-15 colon) of the following molecule: CCCCN(CC)c1ncnc2ccc(Br)cc12
54.7 µM

Give TGI (HCT-15 colon) of the following molecule: COc1ccc(NC(=O)n2nc(/C=C\c3ccc(O)c(OC)c3)cc2/C=C\c2ccc(O)c(OC)c2)cc1
> 100 µM

Give TGI (HCT-15 colon) of the following molecule: CCOC(=O)c1c2c(n(Cc3ccccc3)c1C)-c1nc(Cc3ccccc3)[nH]c1C(=O)C2=O
2.94 µM

Give TGI (HCT-15 colon) of the following molecule: COc1ccc(NC(=O)CC(=O)N2N=C(N(c3ccccc3)c3ccccc3)CC2c2ccccc2)cc1 (stereo not given)
> 100 µM

Give TGI (HCT-15 colon) of the following molecule: Cn1c2ccc(C3=NCCN3)cc2c2cc(C3=NCCN3)ccc21
> 100 µM

Data origin, for the record: PubChem BioAssay (NCI)
